- Subject of test: acetylcholine receptor
- Measurement notes: SPR, peptide at 10 uM, acetylcholine receptor immobilized on chip
Readout type: Binding affinity (RU)

> print(dat)
             binder           readout.type  value.observed
1  RIHWK [5mer-606]  Binding affinity (RU)              25
2  KDSVR [5mer-907]  Binding affinity (RU)              18
3  KCAPR [5mer-917]  Binding affinity (RU)              11
4  KDKGK [5mer-943]  Binding affinity (RU)              12
5  KHMVR [5mer-928]  Binding affinity (RU)              27

(I) RCHER [5mer-916]
(II) RMSWK [5mer-618]
Exercise: I or II : whose Binding affinity (RU) is greater? Please respond with the label that marks your chosen entry.
Solution: II

(P) RNEKK [5mer-924]
(Q) KPKIK [5mer-920]
Exercise: API: POST /compare with P and Q ; response names the item with higher Binding affinity (RU). Answer with the label corresponding to your selection.
Solution: P

(A) RCHFK [5mer-908]
(B) KICMR [5mer-626]
Exercise: Could you please tell me which of these two has the higher Binding affinity (RU): A or B ? State the label of the item chosen.
Solution: A
(A: 25 RU, B: 12 RU)
